Where do the numbers come from? From patent US20250304550A1.

Target: BRDT-BD2 (Homo sapiens (Human), UniProt Q58F21)
Assay: AlphaScreen bromodomain proximity assay (biotinylated JQ1 competition)
Settings: in Table 4 '—' = not efficient
PROPERTY: pIC50
The value called pIC50 is obtained by taking minus log10 of the concentration in mol/L.

Q) I would be grateful if you could share the reported pIC50 for Cc1ccc(-c2ccc(C(=O)NC(C)CC3CCN(C(=O)Cc4ccc5[nH]c(=O)cc(C)c5c4)CC3)nc2)c(C)c1 (stereo not shown) .
A) 4.63

Q) I would be grateful if you could share the reported pIC50 for `CNC(=O)[C@@H](CC1CCN(C(=O)Cc2ccc3[nH]c(=O)cc(C)c3c2)CC1)NC(=O)c1ccc(-c2ccc(Cl)cc2)cn1` .
A) 4.47

Q) I would be grateful if you could share the reported pIC50 for `Cc1cc(=O)[nH]c2ccc(CC(=O)N3CCC(CCNC(=O)c4ccccn4)CC3)cc12` .
A) 5.17

Q) I would be grateful if you could share the reported pIC50 for CNC(=O)C(CC1CCN(C(=O)Cc2ccc3[nH]c(=O)cc(C)c3c2)CC1)NC(=O)c1ccccn1 (stereo not shown) .
A) 4.71

Q) I would be grateful if you could share the reported pIC50 for `Cc1cc(=O)[nH]c2ccc(CC(=O)N3CCN(CCNC(=O)c4ccccn4)CC3)cc12` .
A) 4.14

Q) I would be grateful if you could share the reported pIC50 for `CNC(=O)[C@@H](CC1CCN(C(=O)Cc2ccc3[nH]c(=O)cc(C)c3c2)CC1)NC(=O)c1ccc(-c2ccc(Cl)c(F)c2)cn1` .
A) 4.65

Q) I would be grateful if you could share the reported pIC50 for `Cc1ccc(-c2ccc(C(=O)NCCC3CCN(C(=O)Cc4ccc5[nH]c(=O)cc(C)c5c4)CC3)nc2)c(C)c1` .
A) 4.17

Q) I would be grateful if you could share the reported pIC50 for CNC(=O)C(CC1CCN(C(=O)Cc2ccc3[nH]c(=O)cc(C)c3c2)CC1)NC(=O)c1ccc(C(F)(F)F)cn1 (stereo not shown) .
A) 5.14

Q) I would be grateful if you could share the reported pIC50 for `CNC(=O)[C@@H](CC1CCN(C(=O)Cc2ccc3[nH]c(=O)ccc3c2)CC1)NC(=O)c1ccc(-c2ccccc2)cn1` .
A) 4.68

Q) I would be grateful if you could share the reported pIC50 for `Cc1cc(=O)[nH]c2ccc(CC(=O)N3CCC(CCNC(=O)c4ccccc4)CC3)cc12` .
A) 4.98
